Origin of measurements: patent US20250382386A1

tested-system: human ALK-1 on cells (CHO-K1-hALK-1 cells; HUVEC; A172) (human, UniProt P37023 22-503)
assay-info: cell-based or functional assay
Each record here notes measured IC50 of blocking BMP9-induced Smad1 phosphorylation in HUVEC cells (ELISA kit).
Use nM as the unit, but write only the number.

Looking for the measured IC50 of blocking BMP9-induced Smad1 phosphorylation in HUVEC cells (ELISA kit) of anti-ALK-1 antibody #18 (antibody, human IgG1, kappa, L234A L235A, V domains shown, the rest as BM; also called #18 mutant; ALK-1 mAb (#18 mutant)) VH: QVQLQESGPGLVKPSQTLSLTCTVSGGSISSGEYYWNWIRQHPGKGLEWIGYIYYSGSTYYNPSLKSRVTISVDTSKNQFSLKLSSVTAADTAVYYCARESVAGFDYWGQGTLVTVSS VL: EIVLTQSPGTLSLSPGERATLSCRASQSVSSSYLAWYQQKPGQAPRLLIYGTSSRATGIPDRFSGSGSGTDFTLTISRLEPEDFAVYYCQAYGSWPITFGQGTRLEIKR , can you help?
8.2

What would you report for anti-ALK-1 antibody #28 (antibody, human IgG1, kappa, L234A L235A, V domains shown) VH: QVQLQESGPGLVKPSQTLSLTCTVSGGSISSGEYYWNWIRQHPGKGLEWIGYIYYSGSTYYNPSLKSRVTISVDTSKNQFSLKLSSVTAADTAVYYCARESVAGFDYWGQGTLVTVSS VL: EIVLTQSPGTLSLSPGERATLSCRASQSVSSSYLAWYQQKPGQAPRLLIYGTSSRATGIPDRFSGSGSGTDFTLTISRLEPEDFAVYYCQIYGSVPITFGQGTRLEIKR ?
6.9

What would you report for anti-ALK-1 antibody #26 (antibody, human IgG1, kappa, L234A L235A, V domains shown) VH: QVQLQESGPGLVKPSQTLSLTCTVSGGSISSGEYYWNWIRQHPGKGLEWIGYIYYSGSTYYNPSLKSRVTISVDTSKNQFSLKLSSVTAADTAVYYCARESVAGFDYWGQGTLVTVSS VL: EIVLTQSPGTLSLSPGERATLSCRASQSVSSSYLAWYQQKPGQAPRLLIYGTSSRATGIPDRFSGSGSGTDFTLTISRLEPEDFAVYYCQVYGSVPITFGQGTRLEIKR ?
12.4
